molecular target: human TRPV4 (hTRPV4/CHO cells) (Homo sapiens, UniProt Q9HBA0); construct: expressed in transfected cells; host or cells: CHO-K1; experiment: Test Example 1: TRPV4 inhibitory activity (IC50 value), 4α-PDD stimulation, Fluo4 calcium fluorescence (FLIPR TETRA); assay type: cell-based; settings: Test Example 1, 4α-PDD stimulation, read-out: Test 1 IC50
Sequence (Q9HBA0 whole entry): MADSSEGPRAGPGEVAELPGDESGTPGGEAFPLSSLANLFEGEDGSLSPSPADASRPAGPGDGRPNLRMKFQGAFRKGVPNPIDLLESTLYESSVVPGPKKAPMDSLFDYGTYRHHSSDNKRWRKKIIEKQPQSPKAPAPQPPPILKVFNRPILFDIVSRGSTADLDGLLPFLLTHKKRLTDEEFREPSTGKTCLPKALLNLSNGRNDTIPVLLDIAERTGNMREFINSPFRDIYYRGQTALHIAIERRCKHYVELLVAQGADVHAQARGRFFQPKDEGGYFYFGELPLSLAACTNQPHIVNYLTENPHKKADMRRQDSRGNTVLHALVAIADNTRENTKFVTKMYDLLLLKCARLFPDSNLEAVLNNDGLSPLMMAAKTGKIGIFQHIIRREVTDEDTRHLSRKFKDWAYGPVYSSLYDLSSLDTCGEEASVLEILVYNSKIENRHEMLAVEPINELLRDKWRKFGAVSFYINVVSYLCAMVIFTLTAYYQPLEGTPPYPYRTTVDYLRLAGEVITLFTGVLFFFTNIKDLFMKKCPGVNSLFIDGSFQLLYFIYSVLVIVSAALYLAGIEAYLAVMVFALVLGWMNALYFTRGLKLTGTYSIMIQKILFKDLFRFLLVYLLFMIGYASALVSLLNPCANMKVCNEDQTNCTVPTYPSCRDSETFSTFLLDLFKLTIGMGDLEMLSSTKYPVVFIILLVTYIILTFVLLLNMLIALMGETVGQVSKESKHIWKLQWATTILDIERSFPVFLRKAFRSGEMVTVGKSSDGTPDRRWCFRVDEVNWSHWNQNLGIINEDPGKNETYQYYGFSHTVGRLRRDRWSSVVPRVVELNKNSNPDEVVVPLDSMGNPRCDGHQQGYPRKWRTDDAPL
pIC50: −log10 of the molar value.
measure: pIC50

Recorded results for 2 compounds are shown here.
Cc1nc(C)c(-c2csc(NC(=O)Cc3ccc(S(=O)(=O)N(C)c4cccnc4)cc3)n2)s1; 6.00 to 7.00
Cc1nc(C)c(-c2csc(NC(=O)OC3CN(c4ncc(C(F)(F)F)cn4)C3)n2)s1; 5.10 to 6.00

q: Recorded pIC50 for "Cc1[nH]c(=O)sc1-c1csc(NC(=O)Cc2ccc(S(=O)(=O)C(F)(F)F)cc2)n1" , please?
a: 6.00 to 7.00

q: Which pIC50 is reported for this compound? "Cc1nc(C)c(-c2csc(NC(=O)CC3CN(Cc4ccc(C(F)(F)F)cc4)C3)n2)s1"
a: 5.10 to 6.00

* * *

molecular target: human TRPV4 (hTRPV4/CHO cells) (Homo sapiens, UniProt Q9HBA0); construct: expressed in transfected cells; host or cells: CHO-K1; experiment: Test Example 1: TRPV4 inhibitory activity (IC50 value), 4α-PDD stimulation, Fluo4 calcium fluorescence (FLIPR TETRA); type: cell-based; settings: Test Example 1, 4α-PDD stimulation, read-out: Test 1 IC50
measure: IC50

# annotated cases, reported IC50 shown
Cc1nc(C)c(-c2csc(NCCc3ccc(Cl)cc3)n2)s1; < 0.1 µM
COC(=O)c1ccc(C(=O)N2CC(C(=O)Nc3nc(-c4sc(C)nc4C)cs3)C2)cc1; 0.1 to 1 µM
CC(=O)NC(C)c1nc(CO)sc1-c1csc(NC(=O)Cc2ccc(S(=O)(=O)C(F)(F)F)cc2)n1 (single isomer, unassigned) [Compound I-481]; 0.1 to 1 µM
Cc1nc(C)c(-c2csc(NC(=O)Cc3ccc(S(=O)(=O)N4CCCCC4)cc3)n2)s1; < 0.1 µM
O=C(Nc1nc(-c2sc(CO)nc2CO)cs1)[C@H]1C[C@@H](OCc2ccc(Cl)cc2)C1; 0.1 to 1 µM

Please find the next molecule below.
q: Given the molecule "COCc1nc(C)c(-c2csc(NC(=O)Cc3ccc(S(=O)(=O)C(F)(F)F)cc3)n2)s1" , what is its reported IC50?
a: 0.1 to 1 µM

* * *

target: human TRPV4 (hTRPV4/CHO cells) (Homo sapiens, UniProt Q9HBA0); construct: expressed in transfected cells; host or cells: CHO-K1; experiment: Test Example 1: TRPV4 inhibitory activity (IC50 value), 4α-PDD stimulation, Fluo4 calcium fluorescence (FLIPR TETRA); format: cell-based; details: Test Example 1, 4α-PDD stimulation, read-out: Test 1 IC50
pIC50: −log10 of the molar value.
measure: pIC50

Below are worked cases with known answers.
O=C(Nc1nc(-c2sc(CO)nc2CO)cs1)[C@H]1C[C@H](OCc2ccccc2)C1 [Compound I-548]; 6.00 to 7.00
CCNC(=O)c1nc(C)sc1-c1csc(NC(=O)Cc2c(F)cccc2F)n1 [Compound I-181]; 5.10 to 6.00

q: Using the record for Cc1nc(C(C)O)sc1-c1csc(NC(=O)[C@H]2C[C@@H](F)C2)n1 (mixture of isomers) [Compound I-299] , report its pIC50.
a: 5.10 to 6.00

q: Which pIC50 reading was recorded for the compound O=C(Cc1ccc(S(=O)(=O)C(F)(F)F)cc1)Nc1nc(-c2sc(CO)nc2CN2CCCC2=O)cs1 [Compound I-463] ?
a: 6.00 to 7.00

q: Can you share its pIC50? I mean this compound: Cc1nc(CN)sc1-c1csc(NC(=O)Cc2ccc(S(=O)(=O)C(F)(F)F)cc2)n1 [Compound I-396]
a: > 7.00

q: Form field: reported pIC50 of Cc1nc(C)c(-c2csc(NC(=O)Cn3cc(-c4ccccc4S(C)(=O)=O)cn3)n2)s1 [Compound I-166]
a: 6.00 to 7.00

q: Tell me the measured pIC50 of CC(=O)Nc1cccc(CC(=O)Nc2nc(-c3sc(C)nc3C)cs2)c1 [Compound I-414] , please.
a: 5.10 to 6.00

q: Dear colleague, I am looking for the recorded pIC50 of the following compound: Cc1nc(C)c(-c2csc(NC(=O)N(C)c3c(F)cccc3F)n2)s1 [Compound I-91]
a: 5.10 to 6.00

q: Requested field: pIC50. Item: Cc1nc(C)c(-c2csc(NC(=O)[C@H]3C[C@H](c4ccccc4)CN3C(=O)OC(C)(C)C)n2)s1 [Compound I-245]
a: > 7.00

q: So what does the record say about pIC50 for Cc1nc(C)c(-c2csc(NC(=O)Cc3ccc(NC(=O)c4ccccc4)cc3)n2)s1 [Compound I-413] ?
a: 6.00 to 7.00

q: What value of measured pIC50 is listed for CCOc1cn(CC(=O)Nc2nc(-c3sc(C)nc3C)cs2)nn1 [Compound I-431] ?
a: 5.10 to 6.00

* * *

target: human TRPV4 (hTRPV4/CHO cells) (Homo sapiens); construct: expressed in transfected cells; host or cells: CHO-K1; test: Test Example 1: TRPV4 inhibitory activity (IC50 value), 4α-PDD stimulation, Fluo4 calcium fluorescence (FLIPR TETRA); assay type: cell-based; details: Test Example 1, 4α-PDD stimulation, read-out: Test 1 IC50
measure: IC50

Some entries whose results are on file:
CC(=O)N(C)Cc1nc(CO)sc1-c1csc(NC(=O)Cc2ccc(S(=O)(=O)C(F)(F)F)cc2)n1; 100 to 1000 nM
Cc1nc(C)c(-c2csc(NC(=O)Cn3cc(-c4ccncc4)cn3)n2)s1; 100 to 1000 nM
Cc1nc(C)c(-c2csc(NC(=O)[C@@H]3C[C@@H](c4ccccc4)CN3)n2)s1; 100 to 1000 nM
Cc1nc(C)c(-c2csc(NC(=O)CN3CCC(O)(c4ccccc4)CC3)n2)s1; 1000 to 8000 nM
CC(C)c1ccc(N2CC(C(=O)Nc3nc(-c4sc(CO)nc4CO)cs3)C2)cc1; < 100 nM
Cc1nc(C)c(-c2csc(NC(=O)C3CC3(F)F)n2)s1 (stereo not drawn) [Compound I-120]; 1000 to 8000 nM
O=C(Nc1nc(-c2sc(CO)nc2CO)cs1)[C@H]1C[C@H](F)C1; 1000 to 8000 nM
Cc1nc(C)c(-c2csc(NC(=O)Cc3cccc(C(=O)Nc4ccc(C(F)(F)F)cc4)n3)n2)s1; < 100 nM
COc1cc(CC(=O)Nc2nc(-c3sc(C)nc3C)cs2)cc(C(=O)Nc2ccc(Cl)cc2F)c1; < 100 nM
O=C(Cc1ccc(S(=O)(=O)C(F)(F)F)cc1)Nc1nc(-c2sc(CO)nc2CCN2CCOCC2)cs1; < 100 nM

q: Which IC50 value belongs to "Cc1nc(C)c(-c2csc(NC(=N)Cc3ccc(Cl)cc3)n2)s1" ?
a: 1000 to 8000 nM

q: I have this compound here, "Cc1nc(C)c(-c2nc(NC(=O)Cc3c(F)cccc3F)sc2-c2cscn2)s1" , and I need its recorded IC50.
a: 100 to 1000 nM

q: Query (compound): "Cc1nc(C)c(-c2csc(NC(=O)C3CN(c4ccc(C(F)(F)F)nn4)C3)n2)s1" ; field requested: IC50
a: 100 to 1000 nM

q: I would be grateful if you could share the reported IC50 for "Cc1nc(C)c(-c2csc(NC(=O)C3CN(Cc4ccc(C(F)(F)F)nc4)C3)n2)s1" .
a: 100 to 1000 nM

q: Query: IC50; subject: Cc1nc(C)c(-c2csc(NC(=O)C3(CO)CN(c4ccc(C(F)(F)F)cc4)C3)n2)s1 (racemic)
a: < 100 nM

* * *

Let's look at some molecules and their measured pIC50.
target: human TRPV4 (hTRPV4/CHO cells) (Homo sapiens); construct: expressed in transfected cells; host or cells: CHO-K1; assay: Test Example 1: TRPV4 inhibitory activity (IC50 value), 4α-PDD stimulation, Fluo4 calcium fluorescence (FLIPR TETRA); format: cell-based; settings: Test Example 1, 4α-PDD stimulation, read-out: Test 1 IC50
pIC50: −log10 of the molar value.

Cc1nc(CO)sc1-c1csc(NC(=O)Nc2ccc(C(F)(F)F)nc2)n1 [Compound I-447]; > 7.00

q: Which pIC50 is reported for this molecule? COCCOc1nc(C)c(-c2csc(NC(=O)Cc3ccc(S(=O)(=O)C(F)(F)F)cc3)n2)s1 [Compound I-445]
a: 5.10 to 6.00

q: For Cc1nc(C)c(-c2csc(NC(=O)Cc3cc(Br)cc(C(=O)N[C@H](c4ccccc4)C(F)(F)F)c3)n2)s1 [Compound I-510] , what is its reported pIC50?
a: > 7.00

q: Reported pIC50 for NS(=O)(=O)NCc1nc(CO)sc1-c1csc(NC(=O)Cc2ccc(S(=O)(=O)C(F)(F)F)cc2)n1 [Compound I-384] : what is it?
a: 6.00 to 7.00
